Test system: LOX IMVI melanoma
assay-method-text: NCI tumour cell line growth inhibition, 48 h
measured-parameter: TGI (µM)
Answers are plain numbers, in µM.

// known answers, use as guide
# input-smiles, recorded-value
records = [
    ("COC(=O)CCCNC(=O)C(=O)c1c(O)c(O)c(C(C)C)c2cc(C)c(-c3c(C)cc4c(C(C)C)c(O)c(O)c(C(=O)C(=O)NCCCC(=O)OC)c4c3O)c(O)c12", 1.48),
    ("COc1ccc(Br)c(C=Nc2cccc3cc(OC)c(OC)cc23)c1", 19.2),
    ("COc1ncc(C#CC(=O)c2ccccc2)c(OC)n1", 3),
    ("O=C(c1cccc2cc(O)ccc12)c1cn(CCN2CCOCC2)c2ccccc12", 39.1),
]

# evaluate next
Give its TGI value. Item: `CCCCCC(=C/c1ccccc1)/C=N/N=C(N)N`
3.02

---

Kindly state TGI for each of the entries shown.
System: SK-MEL-5 melanoma
assay-method-text: NCI tumour cell line growth inhibition, 48 h
Square brackets hold non-standard residues; d marks the D form. Peptide text beside a SMILES is read from it. Phe(4-NO2) = N[CH](Cc1ccc([N+](=O)[O-])cc1)C(=O)O

# molecule, tested-on, TGI
measured = [
    ("CCOC(OCC)[C@H](N)[C@@H](O)[C@@H](O)[C@H]1COC(C)(C)O1", "SK-MEL-5 melanoma", "> 100 µM"),
]

Would you mind giving TGI for every molecule in the list below?
1. C[C@H](C(O)CC(=O)C(C)(C)O)[C@H]1CC[C@@]2(C)[C@@H]3CC[C@H]4C(C)(C)[C@@H](OC5OC(COC6OC(CO)C(O)C(O)C6O)C(O)C(O)C5O)CC[C@]4(C)C3=CC[C@]12C (stereo partly specified)
2. NS(=O)(=O)c1nnc(NC(=O)/C=C/C(=O)O)s1
3. O=C1/C(=C\c2cccc(Oc3ccccc3)c2)SC(c2ccccc2)N1c1cccc(Cl)c1 (stereo unspecified)

> 100 µM
> 100 µM
> 100 µM

Would you mind giving TGI for every molecule in the list below?
1. CCCC(=O)Nc1c(I)cc(I)c(CC(CC)C(=O)O)c1I (stereo unspecified)
2. Brc1ccc(C2CC3(c4ccccc4)ON=C(c4ccccc4)N3c3ccccc3S2)cc1 (stereo unspecified)
3. N.N.NCCCCCN.O=C([O-])CC(=O)[O-].O=C([O-])CC(=O)[O-].[Pt+4].[Pt+4]
4. NS(=O)(=O)c1ccc(N2C(=O)C(=O)N(c3ccccc3)C2=S)cc1
5. COC(=O)CCC(NC(=O)C(CCC(=O)OC)NC(=O)C(CCC(=O)OC)NC(=O)C(CCC(=O)OC)NC(=O)C(CCC(=O)OC)NC(=O)C(Cc1ccc([N+](=O)[O-])cc1)NC(=O)C(CCC(=O)OC)NC(=O)C(CCC(=O)OC)NC(=O)C(CCC(=O)OC)NC(=O)C(CCC(=O)OC)NC(=O)C(CCC(=O)OC)NC(C)=O)C(N)=O (stereo unspecified) (Ac-E(OMe)E(OMe)E(OMe)E(OMe)E(OMe)[Phe(4-NO2)]E(OMe)E(OMe)E(OMe)E(OMe)E(OMe)-NH2; configuration not given here)
6. OC[C@@H](O)[C@H](O)[C@@H](O)/C=N/Nc1ccc(Cl)nn1
7. COC(=O)[C@H](Cc1cn(C)cn1)NC(=O)[C@@H](NC(=O)Nc1cc(C(F)(F)F)cc(C(F)(F)F)c1)C(C)(C)C
8. CCOC(=O)C1=C(C)N(C2OC(COC(C)=O)C(OC(C)=O)C(OC(C)=O)C2OC(C)=O)C(=O)NC1c1ccccc1 (stereo unspecified)

1. > 100 µM
2. > 100 µM
3. > 100 µM
4. > 100 µM
5. > 100 µM
6. > 100 µM
7. > 10 µM
8. > 100 µM

Would you mind giving TGI for every molecule in the list below?
1. CCN(CC)CCOc1ccc(Cc2ccccc2)cc1
2. O=C1c2cc([N+](=O)[O-])sc2C(=O)c2cc([N+](=O)[O-])sc21
3. COc1cc(/C=C2\Cc3ccccc3C2=O)cc(OC)c1OC
4. CC(=O)Oc1cc(Cl)c(OC(C)=O)c2c(OC(C)=O)c(C)c(O[Si](C)(C)C(C)(C)C)cc12
5. N#Cc1c2ccc([N+](=O)[O-])cc2c(=O)n2c1sc1ccccc12

["28.5 µM", "7.21 µM", "> 100 µM", "14.6 µM", "> 100 µM"]

Would you mind giving TGI for every molecule in the list below?
1. C=CCN(c1cc(OC)c2c(c1[N+](=O)[O-])C(C)(SC)C(=O)N2)S(C)(=O)=O (stereo unspecified)
2. CC(C)Cc1ccc(C(C)/C=C2\CCC(CN3CCCCC3)C2=O)cc1 (stereo unspecified)
3. CC(=O)OCCCCn1cnc2c(Cl)nc(Nc3ccccc3)nc21
4. N#CC(C(=O)O)C(c1c(Cl)cccc1Cl)C(C#N)C(=O)O (stereo unspecified)

> 100 µM
27 µM
> 100 µM
> 100 µM

---

Tested on: HS 578T breast
assay-method-text: NCI tumour cell line growth inhibition, 48 h
Kindly state TGI for each of the entries shown.

// known answers, use as guide
# molecule, recorded-value
records = [
    ("Cc1ccc(N2C3=C(CC4=C2CC(C)(C)CC4=O)C(=O)CC(C)(C)C3)cc1", "> 100 µM"),
    ("CCCCN1CCC(O)(c2cc(C(=O)O)[nH]c2-c2cc(C)no2)C1=O (stereo not given)", "> 100 µM"),
    ("CN(C)c1c(C2CC(O)C(CO)O2)c(=O)c1=O (stereo not given)", "> 100 µM"),
]

Would you mind giving TGI for every molecule in the list below?
1. CC1(C)OC2COC(c3[nH]nc4c(=O)[nH]c(=O)[nH]c34)C2O1 (stereo not given)
2. S=C1SCN(C2CCCCCCCCCCC2)CN1C1CCCCCCCCCCC1
3. C[C@]12CC/C(=N\O)C=C1CC[C@@H]1[C@@H]2CC[C@]2(C)C(=N/O)/C(=C/c3ccncc3)C[C@@H]12
4. COc1cc(C(=O)N(C(=S)OC23CC4CC(CC(C4)C2)C3)c2ccccc2)cc(OC)c1OC
5. CCCCCCC(=O)c1ccc2ccccc2c1O
6. COc1ccc(NC(=S)Nc2c(C)n(C)n(-c3ccccc3)c2=O)cc1

1: > 100 µM; 2: > 100 µM; 3: > 100 µM; 4: > 100 µM; 5: > 100 µM; 6: > 100 µM

---

Kindly state TGI for each of the entries shown.
System: SK-MEL-2 melanoma
assay-method-text: NCI tumour cell line growth inhibition, 48 h

# molecule, recorded-value
data = [
    ("CCCCCN(CCCCC)C(=O)[C@H](CCC(=O)OCc1ccccc1)NC(=O)c1cc2ccccc2[nH]1", "> 100 µM"),
    ("C#CCOC(=O)[C@@H](C)c1ccc2cc(OC)ccc2c1", "> 100 µM"),
    ("Brc1ccc(C2CC3(c4ccccc4)ON=C(c4ccccc4)N3c3ccccc3S2)cc1 (stereo unspecified)", "> 100 µM"),
    ("CCC(=O)Nc1ncnc2ncn(C(=O)CC)c12", "> 100 µM"),
    ("COc1ccc(C[C@H]2NC[C@H](O)[C@H]2OC(C)=O)cc1", "0.398 µM"),
    ("COc1ccc(-c2cc(-c3ccc(Cl)cc3)nc(SCCCCCCC(=O)NO)n2)cc1", "> 50 µM"),
]

Would you mind giving TGI for every molecule in the list below?
1. COc1cc(C(=O)N(C(=S)OC23CC4CC(CC(C4)C2)C3)c2ccccc2)cc(OC)c1OC
2. COc1ccc2c(c1)C=C(C(C)(C)C)NS2(=O)=O
3. ClCCc1ccccc1CC1=NCCc2ccccc21
4. COc1ccc2[nH]c3c(C)c4ncccc4c(C)c3c2c1

32.1 µM
> 100 µM
39.1 µM
> 10 µM

Would you mind giving TGI for every molecule in the list below?
1. CCSc1nc(C)nc2c1sc1nc3ccccc3n12
2. COC(=O)/C=C/c1cnc2c(c1)oc(=O)n2C

1. > 100 µM
2. > 100 µM

Would you mind giving TGI for every molecule in the list below?
1. COc1cc2c3cc1Oc1c(OC)c(OC)cc4c1C(Cc1ccc(O)c(c1)-c1cc(ccc1OC)CC3N(C)CC2)N(C)CC4 (stereo unspecified)
2. COC1C(OC(C)=O)CC(=O)OC(C)C/C=C/C=C\C(O)C(C)CC(CC=O)C1OC1OC(C)C(OC2CC(C)(O)C(OC(=O)CC(C)C)C(C)O2)C(N(C)C)C1O (stereo unspecified)
3. CCC1(N)C(=O)OCc2c1cc1n(c2=O)Cc2cc3ccccc3nc2-1 (stereo unspecified)
4. CN(/N=C/c1ccccc1C(=O)O)C1=NCCCCN1
5. CCCCCCCCCC[N+](C)(C)C
6. O=P(O)(O)CC1OC(CO)C(O)C1O (stereo unspecified)
7. NS(=O)(=O)c1nnc(NC(=O)/C=C/C(=O)O)s1

["43 µM", "> 100 µM", "> 100 µM", "> 100 µM", "6.61 µM", "> 100 µM", "> 100 µM"]

Would you mind giving TGI for every molecule in the list below?
1. CC(C)C[C@H](NC(=O)CCc1cccc2ccccc12)B(O)O
2. CSC1SCC2C(=O)N(C)C(C(C)C)C(=O)OCC(NC(=O)c3cnc4ccccc4n3)C(=O)NC(C)C(=O)N(C)C1C(=O)N(C)C(C(C)C)C(=O)OCC(NC(=O)c1cnc3ccccc3n1)C(=O)NC(C)C(=O)N2C (stereo unspecified)
3. CC(C)C1=CC23CCC4C(C)(C(=O)O)CCCC4(C)C2CC1C1C(=O)N(c2cccc(N4C(=O)C5C6CC7C8(C)CCCC(C)(C(=O)O)C8CCC7(C=C6C(C)C)C5C4=O)c2)C(=O)C13 (stereo unspecified)
4. CC(C)C1NC(=O)[C@H](C)OC(=O)[C@@H](C(C)C)NC(=O)[C@@H](C)OC(=O)C(C(C)C)NC(=O)[C@H](C)OC1=O (stereo partly specified)
5. Nc1nc(Cc2ccccc2)nc(Cc2ccccc2)c1-c1ccccc1
6. O=C(CC1SC(=Nc2ccccc2Cl)NC1=O)Nc1ccc(Cl)cc1 (stereo unspecified)
7. Cc1nn(C(=O)c2ccncc2)c2c1C(c1ccc([N+](=O)[O-])cc1)SC(N)=N2 (stereo unspecified)

["6.74 µM", "0.00126 µM", "29.9 µM", "> 100 µM", "29.8 µM", "> 100 µM", "> 100 µM"]
